Values were extracted from patent US20150105252A1.

tested on: barnyardgrass; assay: Test A preemergence; type: in vivo, Echinochloa crus-galli; details: preemergence, 125 g ai/ha; visual injury, 0 to 100 scale, approx. 10 days
Recorded Barnyardgrass plant response rating for the following compounds
valueType: Barnyardgrass plant response rating

{"smilesString": "CCCNC(=O)c1cc(COC)n(Cc2ccnc(C(F)(F)F)c2)n1", "valueType": "Barnyardgrass plant response rating", "testResult": 20}
{"smilesString": "CCOc1cc(C(=O)NCC(F)(F)F)nn1Cc1cc(C(F)(F)F)nn1C", "valueType": "Barnyardgrass plant response rating", "testResult": 90}
{"smilesString": "Cc1cc(C(=O)NC2CC2)nn1Oc1ccnc(C(F)(F)F)c1", "valueType": "Barnyardgrass plant response rating", "testResult": 20}
{"smilesString": "Cc1cc(C(=O)NCC(F)(F)F)nn1Cc1cc(F)cc(C(F)(F)F)c1", "valueType": "Barnyardgrass plant response rating", "testResult": 0}
{"smilesString": "Cc1cc(C(=O)NCC(F)(F)F)nn1Cc1cccc(C(F)(F)F)c1", "valueType": "Barnyardgrass plant response rating", "testResult": 0}
{"smilesString": "CCCCc1cc(C(=O)NOCC)nn1Cc1ccnc(C(F)(F)F)c1", "valueType": "Barnyardgrass plant response rating", "testResult": 0}
{"smilesString": "CCNC(=O)c1cc(CC)n(Cc2cc(C(F)(F)F)nn2C)n1", "valueType": "Barnyardgrass plant response rating", "testResult": 90}
{"smilesString": "CCc1cc(C(=O)NC(C)C)nn1Cc1cc(C(F)(F)F)nn1CC", "valueType": "Barnyardgrass plant response rating", "testResult": 20}
{"smilesString": "CCONC(=O)c1cc(CC)n(Cc2ccnc(C(F)(F)F)c2)n1", "valueType": "Barnyardgrass plant response rating", "testResult": 90}
{"smilesString": "O=C(NCC(F)(F)F)c1cc(Cl)n(Cc2cccc(C(F)(F)F)c2)n1", "valueType": "Barnyardgrass plant response rating", "testResult": 0}
{"smilesString": "CCCNC(=O)c1cc(CC)n(Cc2nc(C(F)(F)F)nn2C)n1", "valueType": "Barnyardgrass plant response rating", "testResult": 100}
{"smilesString": "CCCNC(=O)c1cc(Br)n(Cc2cccc(C(F)(F)F)c2)n1", "valueType": "Barnyardgrass plant response rating", "testResult": 0}
{"smilesString": "CCONC(=O)c1cc(CC)n(Cc2ccnc(OC(F)F)c2)n1", "valueType": "Barnyardgrass plant response rating", "testResult": 100}
{"smilesString": "CCc1cc(C(=O)NCC(F)(F)F)nn1Cc1nc(C(F)(F)F)nn1C", "valueType": "Barnyardgrass plant response rating", "testResult": 100}
{"smilesString": "CCCNC(=O)c1cc(OCC)n(Cc2ccnc(OC(F)F)c2)n1", "valueType": "Barnyardgrass plant response rating", "testResult": 100}

---

tested on: wheat; test: Test A postemergence; format: in vivo, Triticum aestivum; details: Postemergence, 1000 g ai/ha; visual rating after approx. 10 days, 0 to 100 scale (0 no effect, 100 complete control)
valueType: Wheat plant response rating

{"compound": "C#CCNC(=O)c1cc(CC)n(Cc2cccc(OC(F)(F)F)c2)n1 [Compound 54]", "assayedTarget": "wheat", "testResult": 10}
{"compound": "Cc1cc(C(=O)NCC(F)(F)F)nn1Cc1ccnc(C(F)(F)F)c1 [Compound 74]", "assayedTarget": "wheat", "testResult": 90}
{"compound": "CCCNC(=O)c1cc(SC)n(Cc2cccc(C(F)(F)F)c2)n1 [Compound 25]", "assayedTarget": "wheat", "testResult": 0}
{"compound": "CCc1cc(C(=O)NCC(F)(F)F)nn1Cc1cccc(OC(F)(F)F)c1 [Compound 20]", "assayedTarget": "wheat", "testResult": 40}
{"compound": "O=C(NC1CC1)c1cc(C2CC2)n(Cc2cccc(OC(F)(F)F)c2)n1 [Compound 37]", "assayedTarget": "wheat", "testResult": 20}
{"compound": "CCc1cc(C(=O)NC2CC2)nn1Cc1cccc(OC(F)(F)F)c1 [Compound 26]", "assayedTarget": "wheat", "testResult": 50}
{"compound": "CCCNC(=O)c1cc(CC)n(Cc2cccc(C(F)(F)F)c2)n1 [Compound 16]", "assayedTarget": "wheat", "testResult": 50}
{"compound": "CCc1cc(C(=O)NC(C)C)nn1Cc1cccc(C(F)(F)F)c1 [Compound 47]", "assayedTarget": "wheat", "testResult": 40}
{"compound": "CCCc1cc(C(=O)NCC)nn1Cc1cccc(OC(F)(F)F)c1 [Compound 33]", "assayedTarget": "wheat", "testResult": 20}

---

tested on: corn; experiment: Test A postemergence; type: in vivo, Zea mays; conditions: Postemergence, 500 g ai/ha; 0 to 100 scale (0 no effect, 100 complete control)
valueType: Corn plant response rating

{"smilesString": "CCCc1cc(C(=O)NC(C)C)nn1Cc1cc(C(F)(F)F)nn1C", "testResult": 100}
{"smilesString": "COCc1cc(C(=O)NCC(F)(F)F)nn1Cc1cc(C(F)(F)C(F)(F)F)nn1C", "testResult": 30}
{"smilesString": "CCCc1cc(C(=O)NOC(C)C)nn1Cc1cc(C(F)(F)F)nn1C", "testResult": 100}
{"smilesString": "CCOc1cc(C(=O)NCC(F)(F)F)nn1Cc1cc(C(F)(F)F)nn1C", "testResult": 80}

---

tested on: barnyardgrass; test: Test A postemergence; format: in vivo, Echinochloa crus-galli; conditions: postemergence, 125 g ai/ha, about 10 days, visual rating on 0 to 100 scale (0 no effect, 100 complete control)
Mark Satisfied for Barnyardgrass plant response rating under 70, Not satisfied if at or over.

{"smilesString": "CCc1cc(C(=O)NC(C)C)nn1Cc1cc(C(F)(F)F)nn1CC", "assayedTarget": "barnyardgrass", "class": "Satisfied"}
{"smilesString": "CCCc1cc(C(=O)NCC(F)(F)F)nn1Cc1ccnc(OC(F)F)c1", "assayedTarget": "barnyardgrass", "class": "Not satisfied"}
{"smilesString": "CCc1cc(C(=O)NCC(F)(F)F)nn1Cc1nc(C(F)(F)F)no1", "assayedTarget": "barnyardgrass", "class": "Satisfied"}
{"smilesString": "CCCc1cc(-c2ccc(C(F)(F)F)cc2)nn1Cc1ccnc(C(F)(F)F)c1", "assayedTarget": "barnyardgrass", "class": "Satisfied"}
{"smilesString": "CCCc1cc(C(=O)NC2CC2)nn1Cc1cc(C(F)(F)F)nn1C", "assayedTarget": "barnyardgrass", "class": "Not satisfied"}
{"smilesString": "O=C(NCC(F)(F)F)c1cc(Br)n(Cc2cccc(C(F)(F)F)c2)n1", "assayedTarget": "barnyardgrass", "class": "Satisfied"}
{"smilesString": "CCc1cc(C(=O)NCC(F)(F)F)nn1Cc1nc(C(F)(F)F)nn1C", "assayedTarget": "barnyardgrass", "class": "Not satisfied"}
{"smilesString": "CCCNC(=O)c1cc(CC)n(Cc2nc(C(F)(F)F)nn2C)n1", "assayedTarget": "barnyardgrass", "class": "Not satisfied"}

---

tested on: pigweed; test: Test C postemergence; assay type: in vivo, Amaranthus retroflexus; settings: postemergence; 125 g ai/ha; scale 0 to 100, 0 no effect, 100 complete control
Mark 1 (yes) for Plant response rating, Pigweed under 70, 0 (no) if at or over.

{"compound": "CCCc1cc(C(=O)NC(C)C)nn1Cc1ccnc(C(F)(F)F)c1 [Compound 186]", "class": "0 (no)"}
{"compound": "CCCNC(=O)c1cc(CC)n(Cc2cccc(OC(F)(F)F)c2)n1 [Compound 27]", "class": "1 (yes)"}
{"compound": "CCc1cc(C(=O)NOC(C)C)nn1Cc1ccnc(OC(F)F)c1 [Compound 126]", "class": "1 (yes)"}
{"compound": "CCCNC(=O)c1cc(OCC)n(Cc2ccnc(C(F)(F)F)c2)n1 [Compound 187]", "class": "1 (yes)"}
{"compound": "Cc1cc(C(=O)NCC(F)(F)F)nn1Cc1ccnc(C(F)(F)F)c1 [Compound 74]", "class": "0 (no)"}
{"compound": "CCc1cc(C(=O)NCC(F)(F)F)nn1Cc1cccc(OC(F)(F)F)c1 [Compound 20]", "class": "0 (no)"}
{"compound": "CCc1cc(C(=O)NC2CC2)nn1Cc1ccnc(Br)c1 [Compound 220]", "class": "1 (yes)"}
{"compound": "CCc1cc(C(=O)NCC(F)(F)F)nn1Cc1ccnc(SC(F)(F)F)c1 [Compound 214]", "class": "0 (no)"}
{"compound": "CCOc1cc(C(=O)NCC(F)(F)F)nn1Cc1ccnc(OC(F)F)c1 [Compound 128]", "class": "1 (yes)"}
{"compound": "CCCNC(=O)c1cc(CC)n(Cc2nc(C(F)(F)F)nn2C)n1 [Compound 109]", "class": "1 (yes)"}
